Assay: Reducing power
Settings: AAE units; X = EO or compound
parameter_measured: RdP

Solved entries (count: 2):
CC1=CC=C(C(C)C)CC1; 11,531.4 ± 637.1 μmol AAE/L X
CC1=CCC(C(C)C)=CC1; 1990.6 ± 160.2 μmol AAE/L X

Read the next record carefully.
Consider the molecule shown here: C=C1C2CCC(C2)C1(C)C (centres unmarked) What is its recorded RdP?
3238.9 ± 157.4 μmol AAE/L X

###

In this section we review reported DPPH values for a set of molecules.
Experiment: DPPH radical scavenging capacity
Conditions: TEAC units; X = EO or compound

CC1=CCC2CC1C2(C)C (stereo not shown); 0.1 ± 0.0 μmol TE/mL X

Consider the molecule shown here: CC1=CCC(O)(C(C)C)CC1 (stereo not shown) What is its recorded DPPH?
0.3 ± 0.0 μmol TE/mL X

Consider the molecule shown here: C=C1CCC2CC1C2(C)C (stereo not shown) What is its recorded DPPH?
0.1 ± 0.0 μmol TE/mL X

Consider the molecule shown here: `CC1=CCC(C(C)C)=CC1` What is its recorded DPPH?
2.1 ± 0.1 μmol TE/mL X

###

Assay: Reducing power
Details: AAE units; X = EO or compound
In this section we review reported RdP values for a set of compounds.

Cc1ccc(C(C)C)c(O)c1; 3353.9 ± 133.4 μmol AAE/L X

Read the next record carefully.
Consider the compound shown here: `Cc1ccc(C(C)C)cc1O` What is its recorded RdP?
3239.6 ± 143.0 μmol AAE/L X

###

In this section we review reported ORAC values for a set of molecules.
Assay: Oxygen radical absorption capacity
Details: TEAC units; X = EO or compound
Lab book: enter the figure in μmol TE/μL X, no units written.

Consider the molecule shown here: CC1=CCC(C(C)C)=CC1 [γ-terpinene] What is its recorded ORAC?
1.1

Consider the molecule shown here: CC1=CCC(O)(C(C)C)CC1 (centres unmarked) [Terpinen-4-ol] What is its recorded ORAC?
2.2

Consider the molecule shown here: CC1=CC=C(C(C)C)CC1 [α-terpinene] What is its recorded ORAC?
0.4

Consider the molecule shown here: Cc1ccc(C(C)C)c(O)c1 [thymol] What is its recorded ORAC?
2.1

Consider the molecule shown here: CC1=CCC2CC1C2(C)C (stereo not drawn) [α-Pinene] What is its recorded ORAC?
0.2

###

In this section we review reported DPPH values for a set of molecules.
Assay: DPPH radical scavenging capacity
Details: TEAC units; X = EO or compound

Solved entries (count: 2):
Cc1ccc(C(C)C)cc1O; 34.9 ± 2.5 μmol TE/mL X
CC1=CC=C(C(C)C)CC1; 1.7 ± 0.1 μmol TE/mL X

Read the next record carefully.
Consider the molecule shown here: `Cc1ccc(C(C)C)c(O)c1` What is its recorded DPPH?
34.9 ± 2.1 μmol TE/mL X

###

In this section we review reported ABTS values for a set of compounds.
Assay: ABTS radical cation bleaching assay
Settings: TEAC units; X = EO or compound
Lab book: enter the figure in μmol TE/mL X, no units written.

Solved entries (count: 3):
CC1=CCC(O)(C(C)C)CC1 (stereo not shown); 1.8
CC1=CC=C(C(C)C)CC1; 24.6
C=C1CCC2CC1C2(C)C (stereo not shown); 0.7

Consider the compound shown here: `CC1=CCC(C(C)C)=CC1` What is its recorded ABTS?
15.6

Consider the compound shown here: `Cc1ccc(C(C)C)cc1` What is its recorded ABTS?
0.6

###

Assay: Oxygen radical absorption capacity
Conditions: TEAC units; X = EO or compound
parameter_measured: ORAC

Consider the compound shown here: CC(C)C12CCC(C)(O)C1C2 (stereo not drawn) [Sabinene hydrate] What is its recorded ORAC?
0.3 ± 0.0 μmol TE/μL X

Consider the compound shown here: C=CC(C)(CCC=C(C)C)OC(C)=O (stereo not drawn) [linalyl acetate] What is its recorded ORAC?
1.0 ± 0.1 μmol TE/μL X

Consider the compound shown here: `CC1=CC[C@@H](C(C)(C)O)CC1` What is its recorded ORAC?
1.9 ± 0.1 μmol TE/μL X

Consider the compound shown here: C=CC(C)(O)CCC=C(C)C (stereo not drawn) What is its recorded ORAC?
1.9 ± 0.1 μmol TE/μL X

Consider the compound shown here: `C=C1CC/C=C(\C)CC[C@@H]2[C@@H]1CC2(C)C` What is its recorded ORAC?
1.7 ± 0.1 μmol TE/μL X

Consider the compound shown here: `C=C(C)[C@H]1CC=C(C)CC1` What is its recorded ORAC?
0.8 ± 0.1 μmol TE/μL X

Consider the compound shown here: `Cc1ccc(C(C)C)cc1O` What is its recorded ORAC?
2.8 ± 0.1 μmol TE/μL X

###

In this section we review reported ABTS values for a set of molecules.
Experiment: ABTS radical cation bleaching assay
Conditions: TEAC units; X = EO or compound

Solved entries (count: 2):
CC12CCC(CC1)C(C)(C)O2 [1,8-Cineole]; 0.2 ± 0.0 μmol TE/mL X
C=CC(C)(O)CCC=C(C)C (centres unmarked) [linalool]; 0.4 ± 0.0 μmol TE/mL X

Read the next record carefully.
Consider the molecule shown here: CC1=CC[C@@H](C(C)(C)O)CC1 [α-Terpineol] What is its recorded ABTS?
1.1 ± 0.1 μmol TE/mL X
